Source: the supplement of paper PMC11246515

Assay: total protein half-life in vivo (active degradation + dilution); higher = more stable protein
Details: E. coli NCM3722 delta-smpB; growth: N-lim chemostat; doubling time 6 h

MONOMER SEQUENCE | UNIT ABBREV | total protein half-life in vivo
MSTTNHDHHIYVLMGVSGSGKSAVASEVAHQLHAAFLDGDFLHPRRNIEKMASGEPLNDDDRKPWLQALNDAAFAMQRTNKVSLIVCSALKKHYRDLLREGNPNLSFIYLKGDFDVIESRLKARKGHFFKTQMLVTQFETLQEPGADETDVLVVDIDQPLEGVVASTIEVIKKGK | h | 4.12
MAQRVQLTATVSENQLGQRLDQALAEMFPDYSRSRIKEWILDQRVLVNGKVCDKPKEKVLGGEQVAINAEIEEEARFEPQDIPLDIVYEDEDIIIINKPRDLVVHPGAGNPDGTVLNALLHYYPPIADVPRAGIVHRLDKDTTGLMVVAKTVPAQTRLVESLQRREITREYEAVAIGHMTAGGTVDEPISRHPTKRTHMAVHPMGKPAVTHYRIMEHFRVHTRLRLRLETGRTHQIRVHMAHITHPLVGDPVYGGRPRPPKGASEAFISTLRKFDRQALHATMLRLYHPISGIEMEWHAPIPQDMVELIEVMRADFEEHKDEVDWL | h | 4.66
MANNTTGFTRIIKAAGYSWKGLRAAWINEAAFRQEGVAVLLAVVIACWLDVDAITRVLLISSVMLVMIVEILNSAIEAVVDRIGSEYHELSGRAKDMGSAAVLIAIIVAVITWCILLWSHFG [P0ABN1] | h | 6.13

---

Experiment: total protein half-life in vivo (active degradation + dilution); higher = more stable protein
Settings: wild type E. coli NCM3722; growth: N-lim chemostat; doubling time 6 h

MONOMER SEQUENCE | total protein half-life in vivo
MLVWLAEHLVKYYSGFNVFSYLTFRAIVSLLTALFISLWMGPRMIAHLQKLSFGQVVRNDGPESHFSKRGTPTMGGIMILTAIVISVLLWAYPSNPYVWCVLVVLVGYGVIGFVDDYRKVVRKDTKGLIARWKYFWMSVIALGVAFALYLAGKDTPATQLVVPFFKDVMPQLGLFYILLAYFVIVGTGNAVNLTDGLDGLAIMPTVFVAGGFALVAWATGNMNFASYLHIPYLRHAGELVIVCTAIVGAGLGFLWFNTYPAQVFMGDVGSLALGGALGIIAVLLRQEFLLVIMGGVFVVETLSVILQVGSFKLRGQRIFRMAPIHHHYELKGWPEPRVIVRFWIISLMLVLIGLATLKVR [P0A6W3] | 6.35 h
MSEIKDVIVQGLWKNNSALVQLLGLCPLLAVTSTATNALGLGLATTLVLTLTNLTISTLRHWTPAEIRIPIYVMIIASVVSAVQMLINAYAFGLYQSLGIFIPLIVTNCIVVGRAEAFAAKKGPALSALDGFSIGMGATCAMFVLGSLREIIGNGTLFDGADALLGSWAKVLRVEIFHTDSPFLLAMLPPGAFIGLGLMLAGKYLIDERMKKRRAEAAAERALPNGETGNV | 3.33 h
MKICLIDETGTGDGALSVLAARWGLEHDEDNLMALVLTPEHLELRKRDEPKLGGIFVDFVGGAMAHRRKFGGGRGEAVAKAVGIKGDYLPDVVDATAGLGRDAFVLASVGCRVRMLERNPVVAALLDDGLARGYADAEIGGWLQERLQLIHASSLTALTDITPRPQVVYLDPMFPHKQKSALVKKEMRVFQSLVGPDLDADGLLEPARLLATKRVVVKRPDYAPPLANVATPNAVVTKGHRFDIYAGTPV | 5.3 h

---

Catalogue of total protein half-life in vivo readings, one per entry.
Test: total protein half-life in vivo (active degradation + dilution); higher = more stable protein
Conditions: wild type E. coli NCM3722; growth: C-lim chemostat; doubling time 6 h
OBSERVATION TYPE: total protein half-life in vivo (h)

MONOMER SEQUENCE | VAL
MKKWSRHLLAAGALALGMSAAHADDNNTLYFYNWTEYVPPGLLEQFTKETGIKVIYSTYESNETMYAKLKTYKDGAYDLVVPSTYYVDKMRKEGMIQKIDKSKLTNFSNLDPDMLNKPFDPNNDYSIPYIWGATAIGVNGDAVDPKSVTSWADLWKPEYKGSLLLTDDAREVFQMALRKLGYSGNTTDPKEIEAAYNELKKLMPNVAAFNSDNPANPYMEGEVNLGMIWNGSAFVARQAGTPIDVVWPKEGGIFWMDSLAIPANAKNKEGALKLINFLLRPDVAKQVAETIGYPTPNLAARKLLSPEVANDKTLYPDAETIKNGEWQNDVGAASSIYEEYYQKLKAGR [P0AFK9] | 6.44
MIDYEVLRFIWWLLVGVLLIGFAVTDGFDMGVGMLTRFLGRNDTERRIMINSIAPHWDGNQVWLITAGGALFAAWPMVYAAAFSGFYVAMILVLASLFFRPVGFDYRSKIEETRWRNMWDWGIFIGSFVPPLVIGVAFGNLLQGVPFNVDEYLRLYYTGNFFQLLNPFGLLAGVVSVGMIITQGATYLQMRTVGELHLRTRATAQVAALVTLVCFALAGVWVMYGIDGYVVKSTMDHYAASNPLNKEVVREAGAWLVNFNNTPILWAIPALGVVLPLLTILTARMDKAAWAFVFSSLTLACIILTAGIAMFPFVMPSSTMMNASLTMWDATSSQLTLNVMTWVAVVLVPIILLYTAWCYWKMFGRITKEDIERNTHSLY [P0ABK2] | 6.31
MKYKHLILSLSLIMLGPLAHAEEIGSVDTVFKMIGPDHKIVVEAFDDPDVKNVTCYVSRAKTGGIKGGLGLAEDTSDAAISCQQVGPIELSDRIKNGKAQGEVVFKKRTSLVFKSLQVVRFYDAKRNALAYLAYSDKVVEGSPKNAISAVPVMPWRQ [P0AE91] | 5.97
MTHKATEILTGKVMQKSVLITGCSSGIGLESALELKRQGFHVLAGCRKPDDVERMNSMGFTGVLIDLDSPESVDRAADEVIALTDNCLYGIFNNAGFGMYGPLSTISRAQMEQQFSANFFGAHQLTMRLLPAMLPHGEGRIVMTSSVMGLISTPGRGAYAASKYALEAWSDALRMELRHSGIKVSLIEPGPIRTRFTDNVNQTQSDKPVENPGIAARFTLGPEAVVDKVRHAFISEKPKMRYPVTLVTWAVMVLKRLLPGRVMDKILQG [P0AFP4] | 6.19
MPSIRLADLAQQLDAELHGDGDIVITGVASMQSAQTGHITFMVNPKYREHLGLCQASAVVMTQDDLPFAKSAALVVKNPYLTYARMAQILDTTPQPAQNIAPSAVIDATAKLGNNVSIGANAVIESGVELGDNVIIGAGCFVGKNSKIGAGSRLWANVTIYHEIQIGQNCLIQSGTVVGADGFGYANDRGNWVKIPQIGRVIIGDRVEIGACTTIDRGALDDTIIGNGVIIDNQCQIAHNVVIGDNTAVAGGVIMAGSLKIGRYCMIGGASVINGHMEICDKVTVTGMGMVMRPITEPGVYSSGIPLQPNKVWRKTAALVMNIDDMSKRLKSLERKVNQQD | 5.58
MQKQAELYRGKAKTVYSTENPDLLVLEFRNDTSAGDGARIEQFDRKGMVNNKFNYFIMSKLAEAGIPTQMERLLSDTECLVKKLDMVPVECVVRNRAAGSLVKRLGIEEGIELNPPLFDLFLKNDAMHDPMVNESYCETFGWVSKENLARMKELTYKANDVLKKLFDDAGLILVDFKLEFGLYKGEVVLGDEFSPDGSRLWDKETLEKMDKDRFRQSLGGLIEAYEAVARRLGVQLD [P0A7D7] | 5.98
MLELNFSQTLGNHCLTINETLPANGITAIFGVSGAGKTSLINAISGLTRPQKGRIVLNGRVLNDAEKGICLTPEKRRVGYVFQDARLFPHYKVRGNLRYGMSKSMVDQFDKLVALLGIEPLLDRLPGSLSGGEKQRVAIGRALLTAPELLLLDEPLASLDIPRKRELLPYLQRLTREINIPMLYVSHSLDEILHLADRVMVLENGQVKAFGALEEVWGSSVMNPWLPKEQQSSILKVTVLEHHPHYAMTALALGDQHLWVNKLDEPLQAALRIRIQASDVSLVLQPPQQTSIRNVLRAKVVNSYDDNGQVEVELEVGGKTLWARISPWARDELAIKPGLWLYAQIKSVSITA | 5.77
MKSRAAVAFAPGKPLEIVEIDVAPPKKGEVLIKVTHTGVCHTDAFTLSGDDPEGVFPVVLGHEGAGVVVEVGEGVTSVKPGDHVIPLYTAECGECEFCRSGKTNLCVAVRETQGKGLMPDGTTRFSYNGQPLYHYMGCSTFSEYTVVAEVSLAKINPEANHEHVCLLGCGVTTGIGAVHNTAKVQPGDSVAVFGLGAIGLAVVQGARQAKAGRIIAIDTNPKKFDLARRFGATDCINPNDYDKPIKDVLLDINKWGIDHTFECIGNVNVMRAALESAHRGWGQSVIIGVAVAGQEISTRPFQLVTGRVWKGSAFGGVKGRSQLPGMVEDAMKGDIDLEPFVTHTMSLDEINDAFDLMHEGKSIRTVIRY | 5.87
MGKSIVVVSAVNFTTGGPFTILKKFLAATNNKENVSFIALVHSAKELKESYPWVKFIEFPEVKGSWLKRLHFEYVVCKKLSKELNATHWICLHDITANVVTKKRYVYCHNPAPFYKGILFREILMEPSFFLFKMLYGLIYKINIKKNTAVFVQQFWMKEKFIKKYSINNIIVSRPEIKLSDKSQLTDDDSQFKNNPSELTIFYPAVPRVFKNYELIISAARKLKEQSNIKFLLTISGTENAYAKYIISLAEGLDNVHFLGYLDKEKIDHCYNISDIVCFPSRLETWGLPLSEAKERGKWVLASDFPFTRETLGSYEKKAFFDSNNDDMLVKLIIDFKKGNLKKDISDANFIYRNENVLVGFDELVNFITEEH | 5.53
